- study-target: EGFR (Homo sapiens)
- Sequence (P00533 667-1210 limits assumed): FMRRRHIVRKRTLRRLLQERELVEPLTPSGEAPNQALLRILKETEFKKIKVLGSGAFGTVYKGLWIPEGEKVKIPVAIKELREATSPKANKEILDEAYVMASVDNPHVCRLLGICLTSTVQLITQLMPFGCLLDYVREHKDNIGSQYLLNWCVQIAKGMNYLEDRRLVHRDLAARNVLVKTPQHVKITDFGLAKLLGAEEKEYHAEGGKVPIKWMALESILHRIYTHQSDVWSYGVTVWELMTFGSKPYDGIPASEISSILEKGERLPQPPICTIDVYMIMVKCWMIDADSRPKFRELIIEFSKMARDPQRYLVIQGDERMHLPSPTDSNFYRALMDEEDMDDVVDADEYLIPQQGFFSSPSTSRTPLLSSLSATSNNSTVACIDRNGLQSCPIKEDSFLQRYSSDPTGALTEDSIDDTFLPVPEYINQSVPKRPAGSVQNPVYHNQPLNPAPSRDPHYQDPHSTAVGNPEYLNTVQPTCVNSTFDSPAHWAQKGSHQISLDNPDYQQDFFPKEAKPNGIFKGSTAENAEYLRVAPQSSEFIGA
pIC50: −log10 of the molar value.
quantity-measured: pIC50

CC(C)OCCNCc1ccc(Nc2nc3ncnc(Nc4ccc(F)c(Cl)c4)c3s2)cc1; 8.11
Fc1ccc(Nc2ncnc3nc(Nc4ccc(N5CCOCC5)cc4)sc23)cc1Cl; 7.36
C#Cc1cccc(Nc2ncnc3nc(Nc4ccc(S(=O)(=O)NCCCN(C)C)cc4)sc23)c1; 7.60
C#Cc1cccc(Nc2ncnc3nc(Nc4ccc(CN(C)C5CCOCC5)cc4)sc23)c1; 7.97

a = C#Cc1cccc(Nc2ncnc3nc(Nc4ccc(CN(CCOC)CCOC)cc4)sc23)c1
b = Fc1ccc(Nc2ncnc3nc(Nc4ccc(CNC[C@H]5CCCO5)cc4)sc23)cc1Cl
Qu. Hi! Which is lower in terms of pIC50, the first one a or the second one b ? Return value: the label identifying the chosen record.
Ans. a

* * *

- study-target: EGFR (Homo sapiens)
quantity-measured: IC50 (nM)

Below, 6 compounds whose answers are already recorded.
CN1CCN(Cc2ccc(Nc3nc4ncnc(Nc5ccc(OCc6cccc(F)c6)c(Cl)c5)c4s3)cc2)CC1; 20.3
Brc1cccc(Nc2ncnc3nc(Nc4ccccc4)sc23)c1; 16.5
NS(=O)(=O)c1ccc(Nc2nc3ncnc(Nc4ccccc4)c3s2)cc1; 82.5
CN(C)Cc1ccc(Nc2nc3ncnc(Nc4ccc(F)c(Cl)c4)c3s2)cc1; 12.3
NS(=O)(=O)c1ccc(Nc2nc3ncnc(Nc4ccc(CCN5CCOCC5)cc4)c3s2)cc1; 10100
CN(Cc1ccc(Nc2nc3ncnc(Nc4ccc(F)c(Cl)c4)c3s2)cc1)C[C@@H]1CCCO1; 23.9

a = NS(=O)(=O)c1ccc(Nc2nc3ncnc(Nc4ccc(Cl)cc4F)c3s2)cc1
b = NS(=O)(=O)c1ccc(Nc2nc3ncnc(Nc4cccc(Br)c4)c3s2)cc1
c = NS(=O)(=O)c1ccc(Nc2nc3ncnc(Nc4ccc(N5CCOCC5)c(Cl)c4)c3s2)cc1
Qu. Please give the order of these compounds when sorted by IC50, largest value leading. List the labels in the requested order.
Ans. c, a, b

* * *

pIC50: −log10 of the molar value.
So I've got pIC50 readings for EGFR (Homo sapiens, UniProt P00533), take a look.
quantity-measured: pIC50

Below, 2 molecules whose answers are already recorded.
C#Cc1cccc(Nc2ncnc3nc(Nc4ccc(CNCC5COC(C)(C)O5)cc4)sc23)c1 (stereo not shown) [Cpd 62]; 8.16
Clc1cccc(Nc2ncnc3nc(Nc4cccc(CN5CCCCC5)c4)sc23)c1 [Cpd 8]; 7.46

I = Fc1ccc(Nc2ncnc3nc(Nc4ccc(OCCCN5CCN(c6ccc(Cl)cc6)CC5)cc4)sc23)cc1Cl [Cpd 16]
II = O=S(=O)(NCCN1CCOCC1)c1ccc(Nc2nc3ncnc(Nc4ccc(F)c(Cl)c4)c3s2)cc1 [Cpd 40]
Qu. Which value of pIC50 is greater, the one for I or the one for II ? Return value: the label identifying the chosen record.
Ans. II
(II: 8.05, I: 6.78)

a = C#Cc1cccc(Nc2ncnc3nc(Nc4ccc(CCN5CCOCC5)cc4)sc23)c1 [Cpd 50]
b = Fc1ccc(Nc2ncnc3nc(NCCN4CCOCC4)sc23)cc1Cl [Cpd 51]
Qu. Which value of pIC50 is greater, the one for a or the one for b ? Return value: the label identifying the chosen record.
Ans. a
(a: 7.89, b: 6.04)
